- subject_of_test: BChE (Homo sapiens, UniProt P06276)
- Sequence (P06276 29-602, species assumed): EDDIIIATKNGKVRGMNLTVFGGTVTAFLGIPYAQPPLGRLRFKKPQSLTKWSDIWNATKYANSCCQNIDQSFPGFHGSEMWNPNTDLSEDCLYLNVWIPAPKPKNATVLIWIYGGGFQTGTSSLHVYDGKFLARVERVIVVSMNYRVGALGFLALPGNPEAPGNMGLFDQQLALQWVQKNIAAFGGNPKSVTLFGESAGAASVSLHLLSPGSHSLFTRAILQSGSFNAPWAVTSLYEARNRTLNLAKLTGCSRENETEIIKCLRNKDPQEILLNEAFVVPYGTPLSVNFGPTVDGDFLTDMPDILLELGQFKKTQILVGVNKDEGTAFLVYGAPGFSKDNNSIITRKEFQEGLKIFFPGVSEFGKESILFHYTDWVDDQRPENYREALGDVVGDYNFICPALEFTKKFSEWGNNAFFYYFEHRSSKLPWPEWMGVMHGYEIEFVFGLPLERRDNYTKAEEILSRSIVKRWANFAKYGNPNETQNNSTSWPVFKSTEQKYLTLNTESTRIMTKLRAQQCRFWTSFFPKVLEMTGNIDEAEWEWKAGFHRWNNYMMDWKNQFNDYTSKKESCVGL
- reported_conditions: 0.5 mM; mean ± SEM, triplicate
measured_attribute: BChE inhibition, inhibition (%) at 0.5 mM
State just the number; it will be interpreted in %.

{"compound": "Cc1ccc(S(=O)(=O)N2CCC(c3nnc(SCC(=O)Nc4cccc(C)c4)n3C)CC2)cc1 [Compound 12d]", "readout_value": 95.29}
{"compound": "Cc1ccc(NC(=O)CSc2nnc(C3CCN(S(=O)(=O)c4ccc(C)cc4)CC3)n2C)cc1 [Compound 12e]", "readout_value": 96.47}
{"compound": "CCOc1ccc(NC(=O)CSc2nnc(C3CCN(S(=O)(=O)c4ccc(C)cc4)CC3)n2C)cc1 [Compound 12h]", "readout_value": 16.51}

Let us examine a further case.
Test system BChE (Homo sapiens, UniProt P06276); read-out BChE inhibition, inhibition (%) at 0.5 mM; what value for Cc1ccc(S(=O)(=O)N2CCC(c3nnc(SCC(=O)NC4CCCCC4)n3C)CC2)cc1 [Compound 12a] ?
21.93

These measurements were taken from paper PMC9476189.
